B1: library; numbered along this chain (parent)
chain: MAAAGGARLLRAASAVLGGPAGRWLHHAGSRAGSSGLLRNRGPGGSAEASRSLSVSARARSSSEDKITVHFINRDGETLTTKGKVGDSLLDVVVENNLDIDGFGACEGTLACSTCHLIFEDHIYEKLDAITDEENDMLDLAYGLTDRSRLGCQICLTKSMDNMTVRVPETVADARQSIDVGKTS

- Variants of: B1
- test.summary: scaled log2 fold change in cell abundance, elesclomol vs control (0 = silent mean, 1 = nonsense mean) (scaled log2 ratio); higher = higher viability under elesclomol (loss of FDX1 cuproptosis function);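 also: variant abundance is its share of total variant reads in each endpoint sample, from next-generation sequencing of the integrated ORF PCR-amplified out of genomic DNA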
- experimental.context: with ABC1 FDX1 KO; elesclomol 5 nM; glucose 10 mM; 14 days
result.type: scaled log2 fold change
Field format: numeric only.

Example results:
V93Q :: 0.0948
N73L :: -0.0741
E120G :: 0.367
H70I :: 0.093
E77Y :: 0.514
S113N :: -0.0206
G19T :: 0.117
M163A :: -0.185
T157K :: 0.0573
A7S :: 0.0146

Request: May I ask what scaled log2 fold change has been recorded for I72H ?
Result: 0.00982

Request: Repeat for the following variant: A47M
Result: 0.779

Request: Repeat for the following variant: E107K
Result: -0.532

Request: Repeat for the following variant: T80G
Result: 0.0761

Request: Repeat for the following variant: A32Q
Result: 0.0849

Taken from the supplement of paper PMC12855868.
